Would you mind telling me the reported IFNgamma release in MLR, % of rec hu IL-2 control, 10 µg/ml of each entry?
# Target or test system: human TIM3, full length, on cells (human, UniProt Q8TDQ0 22-301)
# Protocol details: cell-based or functional assay
Numbers only, in %.

Examples with their reported IFNgamma release in MLR, % of rec hu IL-2 control, 10 µg/ml follow.
anti-TIM3 antibody Tim3_0030 (antibody, V domains shown, Mouse monoclonal from hybridoma) VH: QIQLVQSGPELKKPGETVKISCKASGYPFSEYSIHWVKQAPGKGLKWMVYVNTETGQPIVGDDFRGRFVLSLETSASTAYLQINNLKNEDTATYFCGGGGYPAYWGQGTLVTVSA VL: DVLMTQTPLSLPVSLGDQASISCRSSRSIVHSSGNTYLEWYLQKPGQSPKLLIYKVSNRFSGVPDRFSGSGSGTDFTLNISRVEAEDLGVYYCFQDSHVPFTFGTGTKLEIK = 4
anti-TIM3 antibody Tim3_0016 (antibody, V domains shown, Mouse monoclonal from hybridoma; also called clone 0016; Tim3_0016-A488) VH: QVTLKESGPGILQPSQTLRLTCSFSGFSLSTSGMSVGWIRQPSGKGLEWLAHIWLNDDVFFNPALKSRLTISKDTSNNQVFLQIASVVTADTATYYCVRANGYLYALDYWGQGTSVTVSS VL: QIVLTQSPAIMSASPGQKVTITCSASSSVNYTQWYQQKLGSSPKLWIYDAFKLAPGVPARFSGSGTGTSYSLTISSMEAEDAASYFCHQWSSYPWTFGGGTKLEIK = 22

### Prompt Entry anti-TIM3 antibody Tim3_0026 (antibody, V domains shown, Mouse monoclonal from hybridoma) VH: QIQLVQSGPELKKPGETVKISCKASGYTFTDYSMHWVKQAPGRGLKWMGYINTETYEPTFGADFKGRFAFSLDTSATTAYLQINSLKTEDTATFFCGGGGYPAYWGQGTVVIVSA VL: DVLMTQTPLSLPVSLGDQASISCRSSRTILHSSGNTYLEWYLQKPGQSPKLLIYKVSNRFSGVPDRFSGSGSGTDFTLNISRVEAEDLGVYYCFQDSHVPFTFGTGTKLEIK has what IFNgamma release in MLR, % of rec hu IL-2 control, 10 µg/ml?
### Response 16
